The measurements presented in this section are drawn from patent US11285156B2.

Molecular target: GDP-bound KRAS protein (aa 1-169), containing both G12C and C118A amino acid substitutions (Homo sapiens (Human), UniProt P01116, C118A/G12C)
Sequence (P01116 other isoform, or with tags, fused parts or gaps G12C/C118A): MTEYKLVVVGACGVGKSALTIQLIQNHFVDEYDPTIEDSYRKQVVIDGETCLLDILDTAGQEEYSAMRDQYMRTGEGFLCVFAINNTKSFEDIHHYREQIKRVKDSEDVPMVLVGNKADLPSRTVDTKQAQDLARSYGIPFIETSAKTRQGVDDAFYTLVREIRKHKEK
Test: Coupled nucleotide exchange assay (SOS-mediated nucleotide exchange, AlphaScreen)
Type: biochemical
Details: 5 min compound pre-incubation
measure: Coupled exchange IC50 (5 min; μM) (µM)
Number only, in µM; omit the unit.

Answered examples (5):
C=CC(=O)N1C[C@H](C)N(c2nc(=O)n(-c3c(C)ccnc3C(C)C)c3nc(N4CCCCC4C)c(Cl)cc23)C[C@H]1C (mixture of isomers) ... 2.88
C=CC(=O)N1[C@H](C)CN(c2nc(=O)n(-c3c(C(C)C)cnnc3C(C)C)c3nc(-c4ccccc4F)c(Cl)cc23)C[C@@H]1C [Example 206-2] ... 0.098
C=CC(=O)N1C[C@H](C)N(c2nc(=O)n(-c3c(CC)ncnc3C(C)C)c3nc(-c4ccccc4C)c(Cl)cc23)C[C@H]1C ... 0.107
C=CC(=O)N1C[C@H](C)N(c2nc(=O)n(-c3c(N)ncnc3C(C)C)c3nc(-c4c(N)cccc4F)c(Cl)cc23)C[C@H]1C ... 0.029
C=CC(=O)N1CCN(c2nc(=O)n(-c3c(C)ccnc3C(C)C)c3nc(-c4c(C)ccc5c4CC(=O)N5)c(Cl)cc23)[C@@H](C)C1 ... 0.769

Next:
Query :: // query Coupled exchange IC50 (5 min; μM) value for entry C=CC(=O)N1C[C@H](C)N(c2nc(=O)n(-c3c(C4CC4)ccnc3C(C)C)c3nc(-c4ccccc4C)c(Cl)cc23)C[C@H]1C (single isomer, unassigned) [Example 125-9]
Result :: 0.035

###

Target: GDP-bound KRAS protein (aa 1-169), containing both G12C and C118A amino acid substitutions (Homo sapiens (Human), UniProt P01116, C118A/G12C)
Assay: Coupled nucleotide exchange assay (SOS-mediated nucleotide exchange, AlphaScreen)
Type: biochemical
Details: read-out: Coupled exchange IC50 (5 min; μM); 5 min compound pre-incubation
Lab note: cut-off is 0.4 µM. Strictly less in IC50 is yes (1). Exactly 0.4 µM or more is no (0).

C=CC(=O)N1C[C@H](C)N(c2nc(=O)n(-c3c(C(C)C)ccnc3C(C)C)c3nc(-c4ccccc4C)c(Cl)cc23)C[C@H]1C (single isomer, unassigned) ... yes (1)
C=CC(=O)N1C[C@H](C)N(c2nc(=O)n(-c3c(C)ccnc3C(C)C)c3nc(-c4c(F)cccc4NC(C)=O)c(Cl)cc23)C[C@H]1C (atropisomer, axis not shown; (M)) ... yes (1)
C=CC(=O)N1C[C@H](C)N(c2nc(=O)n(-c3c(C(C)C)nc(CC)nc3C(C)C)c3nc(-c4ccccc4F)c(Cl)cc23)C[C@H]1C ... no (0)

Could you now consider this next compound?
Query :: Take the compound CC(C)c1ncnc(C(C)C)c1-n1c(=O)nc(N2CCN(C(=O)/C=C/CN(C)C)C[C@@H]2C)c2cc(Cl)c(-c3ccccc3F)nc21 and say whether its IC50 is less than 0.4 µM.
Result :: no (0)

###

Biological target: GDP-bound KRAS protein (aa 1-169), containing both G12C and C118A amino acid substitutions (Homo sapiens (Human), UniProt P01116, C118A/G12C)
Assay: Coupled nucleotide exchange assay (SOS-mediated nucleotide exchange, AlphaScreen)
Assay type: biochemical
Conditions: 5 min compound pre-incubation
measure: Coupled exchange IC50 (5 min; μM) (µM)
Report the figure in µM without appending any unit label.

C=CC(=O)N1C[C@H](C)N(c2nc(=O)n(-c3c(C4CC4)ccnc3C(C)C)c3nc(-c4ccccc4C)c(Cl)cc23)C[C@H]1C (single isomer, unassigned) [Example 124-9] ... 0.122
C#Cc1nc(C)c(-n2c(=O)nc(N3C[C@@H](C)N(C(=O)C=C)C[C@@H]3C)c3cc(Cl)c(-c4ccccc4F)nc32)c(C(C)C)n1 (single isomer, unassigned) ... 0.066
C=CC(=O)N1C[C@H](C)N(c2nc(=O)n(-c3c(C)nc(C(=C)C)nc3C(C)C)c3nc(-c4ccccc4F)c(Cl)cc23)C[C@H]1C (single isomer, unassigned) ... 0.075
C=CC(=O)N1CCN(c2nc(=O)n(-c3c(C)cc(N)nc3C(C)C)c3nc(-c4ccccc4F)c(Cl)cc23)[C@@H](C)C1 (single isomer, unassigned) ... 0.61

Query :: Could you share which Coupled exchange IC50 (5 min; μM) value was measured for [2H]C1([2H])CN(c2nc(=O)n(-c3c(C)ccnc3C(C)C)c3nc(-c4c(O)cccc4F)c(F)cc23)CC([2H])([2H])N1C(=O)C=C (atropisomer, axis not shown; (M)) ?
Result :: 0.382

Query :: Then C=CC(=O)N1C[C@H](C)N(c2nc(=O)n(-c3c(C)cc(S(C)(=O)=O)cc3C(C)C)c3nc(-c4ccccc4F)c(Cl)cc23)C[C@H]1C (single isomer, unassigned) [Example 215-2] ?
Result :: 0.055

Query :: Entry to check: C=CC(=O)N1C[C@H](C)N(c2nc(=O)n(-c3c(C)ncnc3C(C)C)c3nc(-c4ccccc4F)c(Cl)cc23)C[C@H]1C (single isomer, unassigned) [Example 194-2]
Result :: 1.45

Query :: // query: C=CC(=O)N1C[C@H](C)N(c2nc(=O)n(-c3c(C(C)C)cnnc3C(C)C)c3nc(-c4ccccc4F)c(Cl)cc23)C[C@H]1C (single isomer, unassigned) [Example 205-1]
Result :: 0.098

Query :: Another compound to check: C=CC(=O)N1C[C@H](C)N(c2nc(=O)n(-c3c(C(C)C)cc(N4CCC4)nc3C(C)C)c3nc(-c4ccccc4F)c(Cl)cc23)C[C@H]1C [Example 182]
Result :: 8.794

Query :: Also check C=CC(=O)N1C[C@H](C)N(c2nc(=O)n(-c3c(C)nc(Br)nc3C(C)C)c3nc(-c4ccccc4F)c(Cl)cc23)C[C@H]1C (single isomer, unassigned) [Example 197-1]
Result :: 1.59

###

The reader will find reported IC50 values listed item by item below.
Biological target: GDP-bound KRAS protein (aa 1-169), containing both G12C and C118A amino acid substitutions (Homo sapiens (Human), UniProt P01116, C118A/G12C)
Assay: Coupled nucleotide exchange assay (SOS-mediated nucleotide exchange, AlphaScreen)
Assay type: biochemical
Settings: read-out: Coupled exchange IC50 (5 min; μM); 5 min compound pre-incubation
Report the value in µM with no unit label.

C=CC(=O)N1C[C@H](C)N(c2nc(=O)n(-c3c(C)ccnc3C(C)C)c3nc(-c4ccccc4NS(C)(=O)=O)c(Cl)cc23)C[C@H]1C (atropisomer, axis not shown; (M)) ... 0.075
C=CC(=O)N1C[C@H](C)N(c2nc(=O)n(-c3c(C)ccnc3C(C)C)c3nc(-c4ccsc4C)c(Cl)cc23)C[C@H]1C (atropisomer, axis not shown; (M)) ... 0.095
C=CC(=O)N1C[C@H](C)N(c2nc(=O)n(-c3c(C)ccnc3C(C)C)c3nc(-c4ccccc4F)c(Cl)nc23)C[C@H]1C (single isomer, unassigned) [Example 106-6-1] ... 3.67
C#Cc1ccc(F)c(-c2nc3c(cc2Cl)c(N2C[C@@H](C)N(C(=O)C=C)C[C@@H]2C)nc(=O)n3-c2c(C)ccnc2C(C)C)c1 (atropisomer, axis not shown; (M)) ... 0.04

Note: attention shifts to another entry.
Query :: // IC50 lookup, key: C=CC(=O)N1C[C@H](C)N(c2nc(=O)n(-c3c(C(C)C)ncnc3C3CC3)c3nc(-c4ccccc4C)c(Cl)cc23)C[C@H]1C (single isomer, unassigned) [Example 108-2-2]
Result :: 0.181

###

As shown below, each of these compounds has a reported IC50 value.
Molecular target: GDP-bound KRAS protein (aa 1-169), containing both G12C and C118A amino acid substitutions (Homo sapiens (Human), UniProt P01116, C118A/G12C)
Experiment: Coupled nucleotide exchange assay (SOS-mediated nucleotide exchange, AlphaScreen)
Type: biochemical
Settings: read-out: Coupled exchange IC50 (5 min; μM); 5 min compound pre-incubation
Response body: numeric value in µM, unit text excluded.

Please review the entries below; each comes with its answer.
C=CC(=O)N1C[C@H](C)N(c2nc(=O)n(-c3c(C(C)C)cnn3C(C)C)c3nc(-c4ccccc4F)c(Cl)cc23)C[C@H]1C (single isomer, unassigned) [Example 100-1-1] ... 0.061
C=CC(=O)N1C[C@H](C)N(c2nc(=O)n(-c3c(C)ccnc3C(C)C)c3nc(-c4scnc4C)c(Cl)cc23)C[C@H]1C (atropisomer, axis not shown; (M)) ... 8.87
C=CC(=O)N1C[C@H](C)N(c2nc(=O)n(CC(C)(C)OC)c3nc(-c4ccccc4F)c(Cl)cc23)C[C@H]1C ... 5.04

Query :: Bench note: what IC50 did C=CC(=O)N1C[C@H](C)N(c2nc(=O)n(-c3c(C)ccnc3C(C)C)c3nc(-c4ccccc4C(=O)O)c(F)cc23)C[C@H]1C (atropisomer, axis not shown; (M)) show?
Result :: 0.963

Query :: // next record C=CC(=O)N1C[C@H](C)N(c2nc(=N)n(CC(C)(C)C)c3nc(-c4ccccc4F)c(Cl)cc23)C[C@H]1C
Result :: 0.313

Query :: And what about the compound C=CC(=O)N1C[C@H](C)N(c2nc(=O)n(-c3c(C)ccnc3C(C)C)c3nc(-c4ccccc4C(F)F)c(Cl)cc23)C[C@H]1C (atropisomer, axis not shown; (M)) ?
Result :: 0.043

Query :: Another compound to check: C=CC(=O)N1C[C@H](C)N(c2nc(=O)n(-c3c(C)ccnc3C(C)C)c3nc(-c4ccccc4N)c(Cl)cc23)C[C@H]1C (atropisomer, axis not shown; (M))
Result :: 0.019

Query :: // next record C=CC(=O)N1[C@H](C)CN(c2nc(=O)n(-c3c(C(C)C)ccnc3C(C)C)c3nc(-c4ccccc4C)c(Cl)cc23)C[C@@H]1C [Example 124-11]
Result :: 0.075

Query :: Next up: C=CC(=O)N1C[C@H](C)N(c2nc(=O)n(-c3c(C(C)C)ccnc3C(C)C)c3nc(-c4ccccc4C)c(F)cc23)C[C@H]1C [Example 124-5]
Result :: 0.439

Query :: What do we get for C=CC(=O)N1[C@H](C)CN(c2nc(=O)n(-c3c(C)cc(N)nc3C(C)C)c3nc(-c4c(O)cccc4F)c(F)cc23)C[C@@H]1C (single isomer, unassigned) [Example 123-1] ?
Result :: 1.25

Query :: And what about the compound C=CC(=O)N1CCN(c2nc(=O)n(-c3c(C(C)C)ccnc3C(C)C)c3nc(-c4ccccc4C)c(Cl)cc23)[C@@H](C)C1 (single isomer, unassigned) [Example 125-10] ?
Result :: 0.032

Query :: Item: C=CC(=O)N1C[C@H](C)N(c2nc(=O)n(-c3c(C)ccnc3C(C)C)c3nc(-c4c(C)cccc4C)c(F)cc23)C[C@H]1C (atropisomer, axis not shown; (M))
Result :: 0.469

Query :: Now the same for C=CC(=O)N1C[C@H](C)N(c2nc(=O)n(-c3c(C)ccnc3C(C)C)c3nc(C4CCCC4)c(Cl)cc23)C[C@H]1C (atropisomer, axis not shown; (M))
Result :: 0.631

Query :: Follow-up entry: C=CC(=O)N1C[C@H](C)N(c2nc(=O)n(-c3c(C)ccnc3C(C)C)c3nc(-c4ccccc4C(F)F)c(F)cc23)C[C@H]1C (atropisomer, axis not shown; (M))
Result :: 0.387

Query :: How about C=CC(=O)N1C[C@H](C)N(c2nc(=O)n(-c3c(C)ccnc3C(C)C)c3nc(-c4cccc(F)c4Cl)c(Cl)cc23)C[C@H]1C (atropisomer, axis not shown; (M)) ?
Result :: 0.039

Query :: // query: C=CC(=O)N1C[C@H](C)N(c2nc(=O)n(-c3c(C)cc(CN(C)C)cc3C(C)C)c3nc(-c4ccccc4F)c(F)cc23)C[C@H]1C [Example 80-20]
Result :: 0.763

Query :: Another compound to look at: C=CC(=O)N1C[C@H](C)N(c2nc(=O)n(-c3c(C(C)C)ncnc3C(C)C)c3nc(-c4ccccc4S(C)(=O)=O)c(Cl)cc23)C[C@H]1C
Result :: 5.1
